# Test system: MOLM-14
# Test Description: cells
# Test Settings: Homo sapiens, MOLM-14, 144 h, read-out: AB8939
Readout Name: IC50 (nM)

1. CCOCc1ccc(C)c(Nc2ncc(-c3ccc(N4CCNC4=O)cc3)o2)c1 [AB8939] : 14

* * *

# System: TG-LAM-136-P0
# Test Description: cells
# Parameters: species or system primary AML patient blasts
# Test Settings: 48 h, read-out: IC50 (µM) / AzaC
Readout Name: IC50

1) Nc1ncn([C@@H]2O[C@H](CO)[C@@H](O)[C@H]2O)c(=O)n1 [5-azacytidine] : > 50 µM

* * *

# Test system: TG-LAM-77-P0
# Test Description: cells
# Set-up: species or system primary AML patient blasts
# Test Settings: 48 h, read-out: IC50 (µM) / AB8939
Readout Name: IC50

1. CCOCc1ccc(C)c(Nc2ncc(-c3ccc(N4CCNC4=O)cc3)o2)c1 [AB8939] : > 5 µM

* * *

# Tgt: ALDH2 (Homo sapiens)
# Sequence (P05091 17-517): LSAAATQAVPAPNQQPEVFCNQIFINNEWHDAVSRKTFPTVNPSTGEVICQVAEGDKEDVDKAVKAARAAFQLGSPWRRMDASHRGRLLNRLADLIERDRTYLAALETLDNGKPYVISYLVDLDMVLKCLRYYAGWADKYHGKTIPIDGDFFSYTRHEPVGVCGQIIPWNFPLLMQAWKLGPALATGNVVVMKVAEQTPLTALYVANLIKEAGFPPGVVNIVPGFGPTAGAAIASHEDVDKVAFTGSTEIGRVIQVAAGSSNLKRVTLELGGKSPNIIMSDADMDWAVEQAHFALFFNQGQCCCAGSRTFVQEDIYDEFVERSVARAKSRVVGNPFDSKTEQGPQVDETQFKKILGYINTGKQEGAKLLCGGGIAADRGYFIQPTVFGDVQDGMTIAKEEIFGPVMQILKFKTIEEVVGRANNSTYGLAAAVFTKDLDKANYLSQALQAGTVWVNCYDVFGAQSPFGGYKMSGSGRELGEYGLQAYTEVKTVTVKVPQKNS
# Test Description: NADH fluorescence dehydrogenase assay
# Type: biochemical
pIC50: −log10 of the molar value.
Readout Name: pIC50

1. CCOCc1ccc(C)c(Nc2ncc(-c3ccc(N4CCNC4=O)cc3)o2)c1 : 6.47

* * *

# Test system: TG-LAM-139-P0
# Test Description: cells
# Set-up: species or system primary AML patient blasts
# Test Settings: 48 h, read-out: IC50 (µM) / AB8939
Readout Name: IC50

1) CCOCc1ccc(C)c(Nc2ncc(-c3ccc(N4CCNC4=O)cc3)o2)c1 : 0.94 µM

* * *

# Tested on: H-1299
# Test Description: cells
# Test Settings: Homo sapiens, NCI-H1299, 144 h, read-out: Unesbulin (PTC-596)
Readout Name: IC50 (nM)

1. Cc1nc2ccc(F)cc2n1-c1nc(N)c(F)c(Nc2ccc(C(F)(F)F)cc2)n1 : 5

* * *

# System: TG-LAM-75-P3
# Test Description: cells
# Set-up: species or system primary AML patient blasts
# Test Settings: 48 h, read-out: IC50 (µM) / AzaC
Readout Name: IC50 (µM)

1) Nc1ncn([C@@H]2O[C@H](CO)[C@@H](O)[C@H]2O)c(=O)n1 [5-azacytidine] : 13

* * *

# Tested on: CMK
# Test Description: cells
# Design: species or system CHRF
# Test Settings: Homo sapiens, 72 h, read-out: Doxorubicin (IC50 nM)
Readout Name: IC50 (nM)

1) COc1cccc2c1C(=O)c1c(O)c3c(c(O)c1C2=O)C[C@@](O)(C(=O)CO)C[C@@H]3O[C@H]1C[C@H](N)[C@H](O)[C@H](C)O1 [doxorubicin] : 844

* * *

# Test system: MESSA
# Test Description: cells
# Test Settings: Homo sapiens, MES-SA, 144 h, read-out: AB8939
Readout Name: IC50 (nM)

1. CCOCc1ccc(C)c(Nc2ncc(-c3ccc(N4CCNC4=O)cc3)o2)c1 : 7

Data credit: paper doi:10.64898/2025.12.10.692519v1
